biological target: Steroidogenic factor 1 (Homo sapiens); experiment: SF-1 ligand-binding domain transactivation enhancers – cell-based, CHO-K1, Gal4-SF-1 LBD, luciferase luminescence, primary screen (AID 522); details: CHO-K1 Gal4-SF-1 LBD luciferase reporter; at 10 µM; hits give high values; % increase over DMSO SF-1-specific signal
The whole screen tested about 65,000 compounds, of which about 1,200 (1.8%) were called active. What follows is part of a selection rich in actives, with near analogues and random picks from the rest.
parameter: activation (%)
Number in %, nothing else.

Look up activation for this compound: CCCCOc1ccc(NC(=O)CSCC(=O)OCC)cc1 -6.4

Need activation, item CC(NC(=O)COc1ccccc1)C(=O)NC1=NCCS1 (configuration not stated) -0.2

Please report the recorded activation for CCS(=O)(=O)N1CCCC(C(=O)NCCCN(C)Cc2ccccc2)C1 (configuration not stated) . -14.4

# query: activation of entry CCc1ccc(N2CC(C(=O)NC3=NCCS3)CC2=O)cc1 (configuration not stated) -7.9

So what's the measured activation for this one? COc1ccccc1N=C1SC(C)CN1C(=O)C1CCC1 (configuration not stated) 1.8

Consider the compound CCCCOc1ccc(-c2ncc(C(=O)OCC)c(N)n2)cc1 and give its measured activation. 49.8

Fill in: activation of O=C(NC1=NCCS1)c1ccc(Cl)s1 is ___ 66.2

Requested read-out: activation. Entry: CCCCOC(=O)c1[nH]c(C)c(C(=O)OC)c1C 77.7

Please look up its activation: O=S(=O)(NCC1CCCO1)c1ccc2ccccc2c1 (configuration not stated) -16.7

Please look up its activation: CN(CCc1ccccn1)S(=O)(=O)c1ccc2c3c(cccc13)C(=O)N2 14.4

I have this compound here, CCc1nnc(NC(=O)c2c(O)c3c([nH]c2=O)CCCC3)s1 , and I need its recorded activation. 29.1

If you can, please state the reported activation value of COc1ccc(NC(=O)CSc2nnc(-c3cccs3)n2Cc2ccco2)cc1OC . -6

###

// values below are reported activation
target: Steroidogenic factor 1 (Homo sapiens) (UniProt Q13285); assay: SF-1 ligand-binding domain transactivation enhancers – cell-based, CHO-K1, Gal4-SF-1 LBD, luciferase luminescence, primary screen (AID 522); conditions: CHO-K1 Gal4-SF-1 LBD luciferase reporter; at 10 µM; hits give high values; % increase over DMSO SF-1-specific signal
Sequence (Q13285 whole entry, looked up, the tested form may be a part): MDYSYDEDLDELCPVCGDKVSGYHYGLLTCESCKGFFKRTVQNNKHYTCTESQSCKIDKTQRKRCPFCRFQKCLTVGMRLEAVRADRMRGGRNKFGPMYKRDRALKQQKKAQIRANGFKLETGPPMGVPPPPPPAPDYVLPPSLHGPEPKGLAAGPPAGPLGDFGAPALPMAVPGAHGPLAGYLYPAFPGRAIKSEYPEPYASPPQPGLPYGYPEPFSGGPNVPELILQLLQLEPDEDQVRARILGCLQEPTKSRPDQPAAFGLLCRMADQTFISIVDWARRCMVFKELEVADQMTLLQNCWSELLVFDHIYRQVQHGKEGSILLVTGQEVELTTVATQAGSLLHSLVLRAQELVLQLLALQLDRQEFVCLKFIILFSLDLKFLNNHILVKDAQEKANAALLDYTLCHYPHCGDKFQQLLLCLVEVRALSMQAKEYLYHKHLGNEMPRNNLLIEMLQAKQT
In all, about 65,000 compounds went through this assay and about 1,200 (1.8%) were called active. What follows is part of a selection rich in actives, with near analogues and random picks from the rest.

c1c2c(cc3sc(N4CCCCC4)nc13)OCCO2 -71.4% (inactive)
CC(C)(C)NC(=O)c1cc(NC(=O)c2ccco2)cc(NC(=O)c2ccco2)c1 22% (inactive)

Fill in: activation of O=C(Nc1ccc(Cl)cn1)c1cnn2cccnc12 is ___ 63.8% (active)

I'd like to know its activation. The molecule in question is Fc1cc(F)c2nc(N3CCOCC3)sc2c1 52.6% (active)

Bench note: what activation did O=C(Nc1ccc(Cl)cn1)Nc1cccs1 show? 47.6% (inactive)

Consider the molecule COc1cccc(-n2cc3c(c2-c2ccccc2)c(=O)n(C)c(=O)n3C)c1 and give its measured activation. -21.1% (inactive)

###

target: Steroidogenic factor 1 (Homo sapiens); experiment: SF-1 ligand-binding domain transactivation enhancers – cell-based, CHO-K1, Gal4-SF-1 LBD, luciferase luminescence, primary screen (AID 522); conditions: CHO-K1 Gal4-SF-1 LBD luciferase reporter; at 10 µM; % increase over DMSO SF-1-specific signal
Hit rate of the full screen: of about 65,000 compounds, about 1,200 (1.8%) were called active.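 The calls were made as follows: active = activation above the mean activation of all tested compounds plus 3 SD (cut at about 50% in these data); inactive = the rest.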 For the sample, actives were picked, then their nearest neighbours and some compounds at random.
Choose the fitting class; nothing outside active, inactive is accepted.

Reference set, count: 5
compound	target entity	category
COC(=O)[C@H](C(C)C)n1c(C)c(C(C)=O)c(C(C)=O)c1C	Steroidogenic factor 1 (Homo sapiens)	inactive
COc1ccc(NC(=O)Nc2cccc3cccnc23)cc1	Steroidogenic factor 1 (Homo sapiens)	active
CCOc1cccc(NC(=O)C2CCCN(S(=O)(=O)c3ccc(OC)cc3)C2)c1 (stereo unspecified)	Steroidogenic factor 1 (Homo sapiens)	inactive
O=C(Nc1cccc2cccnc12)c1cccc(N2C(=O)CCC2=O)c1	Steroidogenic factor 1 (Homo sapiens)	inactive
CCOC(=O)CSc1nnc(CNC(=O)c2ccco2)n1-c1ccc(F)cc1	Steroidogenic factor 1 (Homo sapiens)	inactive

# fetch the recorded call for COc1ccc(NC(=O)C2CCCN(S(=O)(=O)c3cccc4cccnc34)C2)cc1 (stereo unspecified) here inactive

###

target: Steroidogenic factor 1 (Homo sapiens); test: SF-1 ligand-binding domain transactivation enhancers – cell-based, CHO-K1, Gal4-SF-1 LBD, luciferase luminescence, primary screen (AID 522); settings: CHO-K1 Gal4-SF-1 LBD luciferase reporter; at 10 µM; hits give high values; % increase over DMSO SF-1-specific signal
Among all 65,000 compounds or so, about 1,200 (1.8%) were called active. What follows is part of a selection rich in actives, with near analogues and random picks from the rest.
parameter: activation (%)
Your answer is read as %, so omit the unit and give the number.

Given the compound COc1cc(NS(=O)(=O)c2ccccc2)ccc1-n1nc(C)cc1C , what is its reported activation? -10.6

// lookup activation for COc1ccc(OC)c(C2N(c3ccccn3)C(=O)C3CCCN32)c1 (stereo unspecified) -12.3

// returns reported activation for input Cc1ccc(Cn2ccc(NC(=O)C3C4CCC(C4)C3C(=O)O)n2)cc1 (stereo unspecified) 3.1

Would you kindly share the measured activation for CC(C)Cn1c(CCC(=O)O)ccc1-c1cccs1 ? 2.5

Fill in: activation of O=C(O)CCC(=O)N(Cc1ccco1)c1nc(-c2ccccc2)cs1 is ___ 9.9

###

molecular target: Steroidogenic factor 1 (Homo sapiens) (UniProt Q13285); experiment: SF-1 ligand-binding domain transactivation enhancers – cell-based, CHO-K1, Gal4-SF-1 LBD, luciferase luminescence, primary screen (AID 522); conditions: CHO-K1 Gal4-SF-1 LBD luciferase reporter; at 10 µM; hits give high values; % increase over DMSO SF-1-specific signal
The campaign covered roughly 65,000 compounds. About 1,200 (1.8%) were called active. The entries come from a sample that favours actives as a whole.
parameter: activation (%)
Numeric answer only, unit % assumed.

# annotated cases, reported activation shown
COC(=O)c1sccc1NC(=O)c1csc2c1CCCC2 -11.7
COC(=O)Cc1cc(=O)n(-c2nc3ccccc3s2)[nH]1 -3
CC(=O)Nc1ccc(S(=O)(=O)N2CCN(C3CCCCCCC3)CC2)cc1 -6.4
COC(=O)c1sc(NC(=O)c2csc3c2CCCC3)nc1C 50.9
CCC(=O)NC(=Nc1nc2ccccc2s1)NC(=O)CC 60.7

Value lookup for activation; key = O=C(O)CSCc1nc2ccccc2s1 15.5

Which activation reading was recorded for the compound CC(=O)Cc1nsc(NC(=O)c2csc3c2CCCC3)n1 ? 18

###

molecular target: Steroidogenic factor 1 (Homo sapiens) (UniProt Q13285); assay: SF-1 ligand-binding domain transactivation enhancers – cell-based, CHO-K1, Gal4-SF-1 LBD, luciferase luminescence, primary screen (AID 522); conditions: CHO-K1 Gal4-SF-1 LBD luciferase reporter; at 10 µM; hits give high values; % increase over DMSO SF-1-specific signal
About 1,200 (1.8%) of roughly 65,000 compounds were called active. This is one part of a sample in which actives are shown more often than they occur.
parameter: activation (%)
Report as a plain number; the unit % is understood.

Sample records with activation:
COc1ccc2c(c1)CCc1c(C(=O)N3CCCC3)noc1-2 55.3
CCOc1ccc2cc(C#N)c(SCC(=O)OC)nc2c1 26.5
COc1ccc(CC(=O)Nc2ccc(-c3nnc(-c4ccccc4)o3)cc2)cc1 -59.5
Cc1ccc(Cc2nc(-c3cccc(C)c3)no2)cc1 53.9

Which value of activation has been reported for Cc1ccc(-c2noc(CN3CCN(Cc4ccccc4)CC3)n2)cc1 in the records? 16.7

Item COc1ccccc1Cc1nc(-c2ccc(C)cc2)no1 has what recorded activation? 16.4

Any idea what activation was measured for COc1ccc2c(c1)CCc1c(C(=O)N3CCc4ccccc4C3)noc1-2 ? 2.4

Quick check: activation of Cc1cccc(-c2noc(-c3ccc(F)cc3)n2)c1 ? 77.6

Give its activation value. Item: Cc1ccc(-c2noc(CCC(N)=O)n2)cc1 9.8

###

biological target: Steroidogenic factor 1 (Homo sapiens) (UniProt Q13285); test: SF-1 ligand-binding domain transactivation enhancers – cell-based, CHO-K1, Gal4-SF-1 LBD, luciferase luminescence, primary screen (AID 522); settings: CHO-K1 Gal4-SF-1 LBD luciferase reporter; at 10 µM; hits give high values; % increase over DMSO SF-1-specific signal
Out of some 65,000 compounds screened, about 1,200 (1.8%) were called active. This excerpt belongs to a sample that is enriched for actives.
Measured activation of individual entries
Report only the number, with the unit % understood.

compound	activation (%)
CN(C(=O)COc1ccccc1)c1nnc(-c2ccncc2)s1	-6.7

If you can, please state the reported activation value of CCOC(=O)C1Cn2c(nc3c(c2=O)C(C)(CC)Cc2ccccc2-3)S1 (centres undefined) . -8.9

Requested field: activation. Item: CN(C(=O)c1ccno1)c1nnc(-c2cccnc2)s1 -11.5

Any idea what its activation is? The compound is CCCCOc1ccc(-c2nnc(-c3ccco3)o2)cc1 23.6

Measured values drawn from PubChem BioAssay AID522 for this set.
